Answer each item with its documented MIC90.
System: Mycobacteroides abscessus
Assay: Antibacterial activity against Mycobacterium abscessus ATCC 19977 expressing tomato RFP assessed as bacterial growth inhibition incubated for 3 days in 7H9 medium by RFP fluorescence based broth microdilution method
Assay type: functional
Settings: ATCC 19977, 72 h, time 3 day
Numbers only, in µM.

Solved cases (6 shown):
chemical-smiles	system-name	MIC90, µM
O=C(N[C@H](Cc1ccccc1)C(=O)Nc1ccccc1N1CCS(=O)(=O)CC1)c1cccs1	Mycobacteroides abscessus	3.13
O=C(N[C@H](Cc1ccccc1)C(=O)Nc1cc(F)ccc1N1CCSCC1)c1cccs1	Mycobacteroides abscessus	25
O=C(N[C@H](Cc1cccs1)C(=O)Nc1ccccc1N1CCOCC1)c1ccccc1F	Mycobacteroides abscessus	6.25
O=C(N[C@H](Cc1ccccc1)C(=O)Nc1cc(F)ccc1N1CCS(=O)(=O)CC1)c1ccccc1F	Mycobacteroides abscessus	3.13
O=C(N[C@H](Cc1ccccc1)C(=O)Nc1ccccc1N1CCOCC1)c1cccs1	Mycobacteroides abscessus	6.25
O=C(N[C@H](Cc1ccccc1)C(=O)Nc1ccccc1N1CCSCC1)c1cccs1	Mycobacteroides abscessus	12.5

Proceeding to the next compound to report its MIC90.
# MIC90 lookup, item `O=C(N[C@H](Cc1cccs1)C(=O)Nc1ccccc1N1CCOCC1)c1cccs1`
12.5

====

Test system: MCF7
Assay: Cytotoxicity against human MCF7 cells assessed as reduction in cell viability incubated for 72 hrs by SRB assay
Assay type: toxicity, cell-based
metric-name: EC50

Guide cases for EC50, answers given:
chemical-smiles	system-name	EC50
O=C(N[C@H](Cc1ccccc1)C(=O)Nc1ccccc1N1CCS(=O)(=O)CC1)c1cccs1	MCF7	> 30 µM
O=C(N[C@H](Cc1ccccc1)C(=O)Nc1ccccc1N1CCSCC1)c1cccs1	MCF7	16.4 µM
O=C(N[C@H](Cc1ccsc1)C(=O)Nc1ccccc1N1CC[S+]([O-])CC1)c1ccccc1F	MCF7	> 30 µM

Please look at the items below and tell me EC50 for each one, in order.
1. O=C(N[C@H](Cc1cccs1)C(=O)Nc1ccccc1N1CC[S+]([O-])CC1)c1cccs1
2. O=C(N[C@H](Cc1ccsc1)C(=O)Nc1ccccc1N1CC[S+]([O-])CC1)c1cccs1
3. O=C(N[C@H](Cc1ccccc1)C(=O)Nc1ccccc1N1CC[S+]([O-])CC1)c1ccccc1F
4. O=C(N[C@H](Cc1ccccc1)C(=O)Nc1ccccc1N1CC[S+]([O-])CC1)c1cccs1
5. O=C(N[C@H](Cc1ccc(O)cc1)C(=O)Nc1cc(F)ccc1N1CCS(=O)(=O)CC1)c1ccccc1F

["> 30 µM", "> 30 µM", "> 30 µM", "> 30 µM", "> 30 µM"]

State the recorded EC50 for every item in the following list.
1. O=C(N[C@H](Cc1ccc(O)cc1)C(=O)Nc1cc(F)ccc1N1CCS(=O)(=O)CC1)c1cccs1
2. O=C(N[C@H](Cc1ccc(O)cc1)C(=O)Nc1cc(F)ccc1N1CCSCC1)c1ccccc1F
3. O=C(N[C@H](Cc1ccccc1)C(=O)Nc1cc(F)ccc1N1CC[S+]([O-])CC1)c1ccccc1F
4. O=C(N[C@H](Cc1ccccc1)C(=O)Nc1cc(F)ccc1N1CC[S+]([O-])CC1)c1cccs1

1. > 30 µM
2. > 30 µM
3. > 30 µM
4. > 30 µM

For every item in the list below, what is its measured EC50?
1. O=C(N[C@H](Cc1ccccc1)C(=O)Nc1cc(F)ccc1N1CCSCC1)c1cccs1
2. O=C(N[C@H](Cc1cccs1)C(=O)Nc1ccccc1N1CC[S+]([O-])CC1)c1ccccc1F
3. O=C(N[C@H](Cc1ccccc1)C(=O)Nc1cc(F)ccc1N1CCS(=O)(=O)CC1)c1cccs1
4. O=C(N[C@H](Cc1ccccc1)C(=O)Nc1ccccc1N1CCOCC1)c1cccs1
5. O=C(N[C@H](Cc1ccc(O)cc1)C(=O)Nc1cc(F)ccc1N1CCSCC1)c1cccs1
6. O=C(N[C@H](Cc1ccccc1)C(=O)Nc1cc(F)ccc1N1CCSCC1)c1ccccc1F
7. O=C(N[C@H](Cc1ccccc1)C(=O)Nc1ccccc1C1CCSCC1)c1cccs1

> 30 µM
28.9 µM
23.2 µM
> 30 µM
> 30 µM
> 30 µM
> 30 µM

Okay, here is my list. What is EC50 for each of these?
1. O=C(N[C@H](Cc1cccs1)C(=O)Nc1ccccc1N1CCOCC1)c1ccccc1F
2. O=C(N[C@H](Cc1ccsc1)C(=O)Nc1ccccc1N1CCOCC1)c1cccs1

> 30 µM
> 30 µM
